test: inhibitors of mutant huntingtin aggregation, primary screen, imaging, exon1htt(103Q)mCFP cells, high-content imaging (AID 483); conditions: exon1htt(103Q)mCFP cell line, aggregate imaging, at 2 µM; measured here: cell count, toxicity;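 note: compound exposure lasted 3 days before fixation; percent of the per-plate median nuclei count of sample wells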
reported_metric: nuclei count (%)
Quick reminder: number only, in %, skip the unit.

COc1cccc(C(c2nnnn2CCc2ccccc2)N2CCN(c3ccccc3)CC2)c1OC (stereo not given): 94.9
Cc1ccc(S(=O)(=O)Nc2cc(C(=O)O)ccc2N2CCCCC2)cc1: 98.1
O=C(NCCCn1ccnc1)c1cnn2c1NC(c1ccccc1)CC2C(F)(F)F (stereo not given): 98.3
CCN(c1ccc2c(c1)OCO2)S(=O)(=O)c1cc(Br)cc2c1N(C(=O)C1CC1)CC2: 99.8
Cn1c(=N)c(S(=O)(=O)c2ccc(Cl)cc2)cc2c(=O)n3ccccc3nc21: 97.1

## Input Provide only the value of recorded nuclei count for CCOC(=O)c1[nH]c(C)c(C(=O)NC)c1C
## Output 105

## Input Provide only the value of recorded nuclei count for Cn1c(NC(=O)c2ccccc2NC(=O)C(C)(C)C)nc2ccccc21
## Output 98.3

## Input Provide only the value of recorded nuclei count for COc1ccc2nc3oc(C(=O)N4CCCCC4)cc3cc2c1
## Output 105

## Input Provide only the value of recorded nuclei count for COc1ccc(-c2nc3c(c(=O)n(C)c(=O)n3C)n2CC2CC(c3ccccc3)=NO2)cc1OC (stereo not given)
## Output 87.9

## Input Provide only the value of recorded nuclei count for CCCNS(=O)(=O)c1ccc(C(=O)NCC2CCCO2)cc1 (stereo not given)
## Output 114

====

target: Voltage-gated potassium channel subunit beta-2 (Rattus norvegicus) (UniProt P62483); test: KvBeta positive modulators, primary screen, biochemical, NADPH fluorescence (AID 623); settings: Recombinant KvBeta, NADPH fluorescence decrease slope, 10 min; at 10 µM; stronger effect = lower value;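 note: fluorescence intensity change per second fitted from 20 to 320 s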
Sequence (P62483 whole entry, looked up): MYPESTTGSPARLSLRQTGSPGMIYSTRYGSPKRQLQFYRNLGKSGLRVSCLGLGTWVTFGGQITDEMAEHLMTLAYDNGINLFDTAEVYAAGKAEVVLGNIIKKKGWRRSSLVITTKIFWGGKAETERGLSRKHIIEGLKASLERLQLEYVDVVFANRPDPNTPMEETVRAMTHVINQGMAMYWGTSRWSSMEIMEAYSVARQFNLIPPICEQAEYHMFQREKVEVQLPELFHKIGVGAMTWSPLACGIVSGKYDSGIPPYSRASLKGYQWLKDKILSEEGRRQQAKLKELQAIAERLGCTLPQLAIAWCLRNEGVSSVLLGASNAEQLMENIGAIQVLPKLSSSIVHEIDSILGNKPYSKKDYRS
The following compounds are listed with their measured NADPH fluorescence slope values.
Respond numerically, and do not add a unit to the figure.

Observe how each entry below is paired with its result.
C=CCOc1ccccc1/C=c1\sc2nc(=O)c(C)nn2c1=O: 1.8e-05
COC(=O)c1ccc(C2/C(=C(\O)c3ccc(OC)c(C)c3)C(=O)C(=O)N2c2cc(C)on2)cc1 (stereo not given): -3.1e-05
CCCCOn1c(C)c(C(=O)OCC)c2c3nonc3ccc21: 6.8e-06
O=C1CCCN1CCCNc1ncnc2c1[nH]c1ccc(Cl)cc12: 3.6e-05

Note: attention shifts to another entry.
## Input State NADPH fluorescence slope (Voltage-gated potassium channel subunit beta-2 (Rattus norvegicus) (UniProt P62483)) of COc1ccc(N2C(=O)CC(N(Cc3ccc(S(N)(=O)=O)cc3)C(C)=O)C2=O)cc1 (stereo not given) .
## Output -3.2e-05

====

test: inhibitors of E-selectin induction by TNFa, primary screen, imaging, HUVEC, immunofluorescence, MLSMR starter and 10KST1 sets (AID 487); details: HUVEC TNFalpha-induced E-selectin immunofluorescence imaging, at 2 µM; measured here: cell number, toxicity;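 note: 100% = median nuclei count of all wells on the same plate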
reported_metric: nuclei count
Write your answer as a measured quantity: the number, then the unit.

Observe how each entry below is paired with its result.
COc1ccc(Cc2noc(-c3ccc(C)cc3)n2)cc1: 138%
Cc1nc2c(o1)CCc1ccccc1C2N1CCN(C)CC1 (stereo not given): 103%
O=S(=O)(N[C@@H]1C[C@H]2CC[C@@H]1C2)c1cccs1: 155%
c1ccc(-c2nn3c(Cn4nnc5ccccc54)nnc3s2)nc1: 82.3%
O=C1c2ccccc2C(=O)N1c1ncccn1: 138%
COc1ccccc1N1CCN(CC(O)c2ccc3cc[nH]c3c2)CC1 (stereo not given): 105%

## Input Provide only the value of recorded nuclei count for Cc1c(NC(=O)C(C)OC(=O)c2cc3c4ccccc4n(C)c3s2)c(=O)n(-c2ccccc2)n1C (stereo not given)
## Output 107%

## Input Provide only the value of recorded nuclei count for CCOC(=O)c1[nH]c(C)c(C(=O)NC)c1C
## Output 103%

## Input Provide only the value of recorded nuclei count for CCOc1ccc(-c2nc(C#N)c(N3CCN(CC)CC3)o2)cc1
## Output 129%

## Input Provide only the value of recorded nuclei count for CCC1CCCN1Cn1cnc2c([nH]c3ccc(OC)cc32)c1=O (stereo not given)
## Output 86.2%

## Input Provide only the value of recorded nuclei count for CCOC(=O)C1CCN(c2c(NC3CCCc4ccccc43)c(=O)c2=O)CC1 (stereo not given)
## Output 98.7%

## Input Provide only the value of recorded nuclei count for CC1Cn2c(nnc2-c2ccc(F)cc2)S1 (stereo not given)
## Output 101%

## Input Provide only the value of recorded nuclei count for CC1(C)Cc2[nH]c(=O)c(C#N)cc2CS1
## Output 149%

## Input Provide only the value of recorded nuclei count for COCCCNC(=O)c1ccccc1NS(=O)(=O)c1ccc(C)cc1
## Output 72.3%
